Endpoint summary: Ki, system: Adenosine receptor A2a (Homo sapiens, UniProt P29274), multiple sources combined.
Sequence (P29274 whole entry): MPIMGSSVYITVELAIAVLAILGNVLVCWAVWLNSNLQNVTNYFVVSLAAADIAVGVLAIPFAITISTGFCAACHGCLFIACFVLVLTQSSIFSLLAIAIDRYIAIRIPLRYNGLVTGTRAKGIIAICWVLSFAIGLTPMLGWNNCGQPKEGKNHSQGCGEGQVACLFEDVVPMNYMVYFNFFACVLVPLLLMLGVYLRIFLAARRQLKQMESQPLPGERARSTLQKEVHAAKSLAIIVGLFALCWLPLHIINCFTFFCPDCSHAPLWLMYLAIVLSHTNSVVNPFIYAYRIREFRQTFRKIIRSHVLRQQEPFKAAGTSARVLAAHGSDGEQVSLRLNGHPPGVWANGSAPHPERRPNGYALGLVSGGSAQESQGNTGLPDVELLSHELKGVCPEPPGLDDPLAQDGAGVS
Labelling: Ki reported below 0.8 µM becomes class 1; at or above becomes class 0.

{"CHEMICAL_SMILES": "CCN(C(C)=O)c1ccc(OC)c2nc(NC(=O)c3ccc(C(=O)OC)cc3)sc12", "CLASSIFICATION": "class 1"}
{"CHEMICAL_SMILES": "O=C(Nc1ncc(C(=O)NCCc2ccccc2)c2nc(-c3ccco3)nn12)NC1CCCCC1", "CLASSIFICATION": "class 1"}
{"CHEMICAL_SMILES": "O=C(O)c1cnc(NCc2ccc(C(F)(F)F)cc2)n2nc(-c3ccco3)nc12", "CLASSIFICATION": "class 0"}
{"CHEMICAL_SMILES": "CCCn1c(=O)c2[nH]c(-c3ccc(OC)cc3)c(O)c2n(CCC)c1=O", "CLASSIFICATION": "class 1"}
{"CHEMICAL_SMILES": "CNC(=O)[C@@]12C[C@@H]1[C@@H](n1cnc3c(NC)nc(C#Cc4ccc(F)s4)nc31)[C@H](O)[C@@H]2O", "CLASSIFICATION": "class 0"}
{"CHEMICAL_SMILES": "Nc1nc(C(=O)NCc2cccc3c(C(=O)N4CCN(c5ccccc5)CC4)ccnc23)c2cccc(F)c2n1", "CLASSIFICATION": "class 0"}
{"CHEMICAL_SMILES": "CC(=O)COc1cccc2cc(-c3ccc(Br)cc3)c(=O)oc12", "CLASSIFICATION": "class 0"}
{"CHEMICAL_SMILES": "CC(=O)Nc1cc(-c2ccco2)nc(-c2ccco2)n1", "CLASSIFICATION": "class 1"}
